# Read-out: Monocyte Chemoattractant Protein-1 (MCP1), CCL2 (gene 6347)
# method_description: BSK_SAg_MCP1: BioMAP Diversity Plus: SAg Assay for Monocyte Chemoattractant Protein-1 (MCP1) Biomarker Activity (AID 2283090)
# measurement_context: primary human HUVEC with PBMC; actives raise or lower the signal
The source made the active and inactive calls. Rule for the calls: active = hit-call score of the fitted dose curve at least 0.9, where 1 is the maximum; inactive = score below 0.9.
Hi! Could you answer with just one of these? T = active, F = inactive

CC1(C)C(=O)N(Cl)C(=O)N1Cl    F
O=C(O)c1ccc2c(c1)nc(C(=O)NC1CCN(C3CC3)CC1)n2Cc1cc(-c2ccc(Cl)s2)on1    F
c1ccc2ncccc2c1    F
CCCCCCCCCCCCCCO    T
Cc1ccc(S(=O)(=O)NC(=O)NN2CCCCCC2)cc1    F

[ask] Identify the outcome logged in this assay for the compound shown: "CC[C@H](C)C(=O)O[C@H]1C[C@H](O)C=C2C=C[C@H](C)[C@H](CC[C@@H](O)C[C@@H](O)CC(=O)O)[C@H]21"
[reply] T

[ask] Identify the outcome logged in this assay for the compound shown: "NCC(F)(F)C(F)(F)C(F)(F)C(F)(F)F"
[reply] F

[ask] Identify the outcome logged in this assay for the compound shown: "Cc1nc(-c2ccccn2)ncc1C(=O)Nn1cc(C)c2cc(F)ccc21"
[reply] F

[ask] Identify the outcome logged in this assay for the compound shown: "CC(C)c1nnc2ccc(-c3ocnc3-c3cc(F)ccc3F)cn12"
[reply] T

[ask] Identify the outcome logged in this assay for the compound shown: "CCCCCCCCCC"
[reply] F

[ask] Identify the outcome logged in this assay for the compound shown: "Cc1nccn1-c1ccc(Sc2cccc(C3(C(N)=O)CCOCC3)c2)cc1"
[reply] T

[ask] Identify the outcome logged in this assay for the compound shown: "NC(N)=O"
[reply] F

[ask] Identify the outcome logged in this assay for the compound shown: "Nc1ccn([C@@H]2O[C@H](CO)[C@@H](O)[C@@H]2O)c(=O)n1"
[reply] F

[ask] Identify the outcome logged in this assay for the compound shown: "CCOC(N)=O"
[reply] F
